Values were extracted from patent US6737383B1.

test system: giant foxtail; assay: Test B pre/postemergence giant foxtail; assay type: in vivo, Setaria faberii; conditions: Preemergence, Rate 125 g/ha; scale of 0 to 10 where 0 is no effect and 10 is complete control
Metric: Plant response rating, Giant foxtail

Name the recorded Plant response rating, Giant foxtail for COC(CCl)n1c(=O)on(C(=O)N(c2ccc(Cl)cc2)C(C)C)c1=O (stereo not drawn) .
9

Please report the recorded Plant response rating, Giant foxtail for C=CC[Si](C)(C)Cn1c(=O)on(C(=O)N(c2ccc(F)cc2)C(C)C)c1=O .
9

Please report the recorded Plant response rating, Giant foxtail for CC(C)N(C(=O)n1oc(=O)n(C(C)C(=O)N(C)C)c1=O)c1ccc(Cl)cc1 (stereo not drawn) .
10

// query Plant response rating, Giant foxtail value for entry CC(C)N(C(=O)n1oc(=O)n(CCCl)c1=O)c1ccc(Cl)cc1
10

Param item = C#CCn1c(=O)on(C(=O)N(c2ccc(F)cc2)C(C)C)c1=O ; retrieve measured Plant response rating, Giant foxtail.
9

Please give the measured Plant response rating, Giant foxtail for this molecule: CC(C)N(C(=O)n1oc(=O)n(C2CCCCCC2)c1=O)C1=CCCCC1
7

# Plant response rating, Giant foxtail lookup, item CC(C)N(C(=O)n1oc(=O)n(CC2=NOCCC2)c1=O)c1ccc(Cl)cc1
8

Which measured Plant response rating, Giant foxtail value corresponds to CC(C)N(C(=O)n1oc(=O)n(CCC(=O)N(C)C)c1=O)c1ccc(Cl)cc1 ?
5

Recorded Plant response rating, Giant foxtail of CC(C)N(C(=O)n1oc(=O)n(C(C)C(=S)N(C)C)c1=O)c1ccc(F)cc1 (stereo not drawn) , please.
7

Using the record for COCC(OC)n1c(=O)on(C(=O)N(c2ccc(Cl)cc2)C(C)C)c1=O (stereo not drawn) , report its Plant response rating, Giant foxtail.
9

For the molecule shown here, CC(C)N(C(=O)n1oc(=O)n(C(C)C2CCC2)c1=O)c1ccc(Cl)cc1 (stereo not drawn) , give the reported Plant response rating, Giant foxtail.
10

Look up Plant response rating, Giant foxtail for this molecule: COC(=O)C(c1ccccc1)n1c(=O)on(C(=O)N(c2ccc(F)cc2)C(C)C)c1=O (stereo not drawn)
5

Value lookup for Plant response rating, Giant foxtail; key = CCn1ncc(Cn2c(=O)on(C(=O)N(c3ccc(F)cc3)C(C)C)c2=O)c1Cl
9

I would be grateful if you could share the reported Plant response rating, Giant foxtail for CC(C)N(C(=O)n1oc(=O)n(C(C)C2CC2)c1=O)c1ccc(F)cc1 (stereo not drawn) .
10

Form field: reported Plant response rating, Giant foxtail of COC(OC)C(C)n1c(=O)on(C(=O)N(c2ccc(F)cc2F)C(C)C)c1=O (stereo not drawn)
10
